- Test system: MDA-MB-231 cells
- method-description: MTT cell viability assay, MDA-MB-231
- Format: cell-based
- details: Homo sapiens, MDA-MB-231, 48 h, read-out: Cell growth % at 10 µM, MDA-MB-231
observation-type: viability at 10 µM (%)
Unit % implied. Number only.

Recorded viability at 10 µM of C#CC[Se]C(=O)C12CC3CC(CC(C3)C1)C2 , please.
71.3

Quick one: viability at 10 µM for C=CC[Se]C(=O)c1cccnc1Cl ?
37.1

Which viability at 10 µM reading was recorded for the compound C=CC[Se]C(=O)c1ccccc1Nc1cccc(C(F)(F)F)c1 [Compound 19a] ?
81.6

Returns the measured viability at 10 µM for the input compound. Input: C#CC[Se]C(=O)c1ccccc1 [Compound 2b, Se-prop-2-ynyl benzoselenoate]
79.3

Returns the measured viability at 10 µM for the input compound. Input: C=CC[Se]C(=O)C12CC3CC(CC(C3)C1)C2 [Compound 1a, Se-allyl adamantane-1-carboselenoate]
92.6

Bench note: what viability at 10 µM did C=CC[Se]C(=O)c1cccnc1 [Compound 7a, Se-allyl pyridine-3-carboselenoate] show?
35.3

If you can, please state the reported viability at 10 µM value of C#CC[Se]C(=O)c1ccccc1O [Compound 13b, Se-prop-2-ynyl 2-hydroxybenzoselenoate] .
52.3

Name the reported viability at 10 µM value associated with the compound C=CC[Se]C(=O)c1ccccc1OC(C)=O [Compound 14a, 2-(allylselanylcarbonyl)phenylacetate]
38.8

Given the entry C#CC[Se]C(=O)c1ccccc1OC(C)=O [Compound 14b] , report its measured viability at 10 µM.
52.3

# query: viability at 10 µM of entry C=CC[Se]C(=O)c1ccccc1 [Compound 2a, Se-allyl benzoselenoate]
37.9

So what's the measured viability at 10 µM for this one? C#CC[Se]C(=O)c1ccco1 [Compound 11b, Se-prop-2-ynyl furan-2-carboselenoate]
99

Give the measured viability at 10 µM of C=CC[Se]C(=O)c1ccccc1Nc1cccc(C)c1C [Compound 18a] .
85.9

Field request: viability at 10 µM | item: C#CC[Se]C(=O)c1cccs1
70.2
